Recorded values, source ChEMBL document CHEMBL1138494.

# test-description: Half life in fasted Sprague-Dawley rat plasma at 1.9 mg/kg, iv by HTLC-MS/MS analysis
# Assay type: ADME, organism-based
# Set-up: dose 1.9 mg/kg, route intravenous
endpoint-label: half-life (min)
Numbers only, in min.

Each molecule below has a recorded value; state its half-life.
1. O=C(O)CCNC(=O)c1ccc(CN(c2ccc(C3=CCCCC3)cc2)c2nc(-c3ccc(C(F)(F)F)cc3)cs2)cc1
2. O=C(O)CCNC(=O)c1ccc(CN(c2ccc(C3=CCCCC3)cc2)c2nc(-c3ccccc3)cs2)cc1
3. O=C(O)CCNC(=O)c1ccc(CN(c2ccc(C3=CCCCC3)cc2)c2nc(-c3ccc(OC(F)(F)F)cc3)cs2)cc1

[35, 37, 43]

* * *

# tgt: Glucagon receptor (Homo sapiens)
# Sequence (P47871 whole entry): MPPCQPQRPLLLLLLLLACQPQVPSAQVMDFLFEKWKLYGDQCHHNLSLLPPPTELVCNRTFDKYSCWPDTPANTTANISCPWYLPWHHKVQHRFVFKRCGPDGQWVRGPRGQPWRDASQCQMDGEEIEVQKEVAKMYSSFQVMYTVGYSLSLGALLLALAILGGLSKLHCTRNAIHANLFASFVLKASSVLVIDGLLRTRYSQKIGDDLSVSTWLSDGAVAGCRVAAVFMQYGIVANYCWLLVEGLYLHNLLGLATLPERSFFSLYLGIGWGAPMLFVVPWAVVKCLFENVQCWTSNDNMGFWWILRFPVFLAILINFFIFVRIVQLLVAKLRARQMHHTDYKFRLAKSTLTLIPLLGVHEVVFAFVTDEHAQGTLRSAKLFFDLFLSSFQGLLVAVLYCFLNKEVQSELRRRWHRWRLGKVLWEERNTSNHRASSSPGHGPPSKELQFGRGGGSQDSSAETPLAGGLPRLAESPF
# test-description: Binding affinity to human recombinant glucagon receptor expressed in BHK cells by membrane filter assay
# Type: cell-based
endpoint-label: pIC50
Numbers only, as −log10 of the molar value.

Cc1cc(N(Cc2ccc(C(=O)NCCC(=O)O)cc2)c2nc(-c3ccc(C(F)(F)F)cc3)cs2)ccc1C(C)C ... 7.03
O=C(O)CCNC(=O)c1ccc(CN(c2ccc3c(c2)Cc2ccccc2-3)c2nc(-c3ccc(OC(F)(F)F)cc3)cs2)cc1 ... 7.23
O=C(O)CCNC(=O)c1ccc(CN(c2ccc(OC(F)(F)F)cc2)c2nc(-c3ccc(C(F)(F)F)cc3)cs2)cc1 ... 7.29
O=C(O)CCNC(=O)c1ccc(CN(c2ccc3c(c2)CCC3)c2nc(-c3ccc(C(F)(F)F)cc3)cs2)cc1 ... 7.19
O=C(O)CCNC(=O)c1ccc(CN(c2ccc3c(c2)CCCC3)c2nc(-c3ccc(Cl)c(Cl)c3)cs2)cc1 ... 7.27
O=C(O)CCNC(=O)c1ccc(N(Cc2ccc3c(c2)Cc2ccccc2-3)c2nc(-c3ccc(Cl)cc3)cs2)cc1 ... 7.47
O=C(O)CCNC(=O)c1ccc(CN(c2ccc3c(c2)CCCC3)c2nc(-c3ccc(C(F)(F)F)cc3)cs2)cc1 ... 7.32

Then this compound:
May I ask what pIC50 has been recorded for O=C(O)CCNC(=O)c1ccc(CN(c2ccc3c(c2)CCC3)c2nc(-c3ccc(OC(F)(F)F)cc3)cs2)cc1 ?
7.02

* * *

# test-description: Clearance in fasted Sprague-Dawley rat at 1.60 mg/kg, iv and 3.25 mg/kg, po by HTLC-MS/MS analysis
# Assay type: ADME, organism-based
# recorded-conditions: in vivo, 1.6 mg/kg
endpoint-label: clearance (mL/min/kg)
Answers are plain numbers, in mL/min/kg.

Any idea what clearance was measured for O=C(O)CCNC(=O)c1ccc(CN(c2ccc(Cl)cc2)c2nc(-c3ccc(C(F)(F)F)cc3)cs2)cc1 ?
5

* * *

What bioavailability was measured for each of the following?
# test-description: Oral bioavailability in fasted Sprague-Dawley rat at 3.25 mg/kg by HTLC-MS/MS analysis
# Format: ADME, organism-based
# recorded-conditions: in vivo
Give bare numbers, in %.

O=C(O)CCNC(=O)c1ccc(CN(c2ccc3c(c2)CCCC3)c2nc(-c3ccc(C(F)(F)F)cc3)cs2)cc1 ... 27

Moving on to another molecule below.
For the molecule O=C(O)CCNC(=O)c1ccc(CN(c2ccc(Cl)cc2)c2nc(-c3ccc(C(F)(F)F)cc3)cs2)cc1 , what bioavailability is on record?
13
